# assay-method-text: Solubility
Catalogue of solubility readings, one per entry.

# compound, solubility [µM]
rows = [
    ("Oc1ccc(C=NNc2nc(-c3ccccc3)cc(-c3ccccc3)n2)cc1O (racemic)", 16),
    ("CN(N=Cc1ccc(O)c(O)c1)c1nc(-c2ccccc2)cc(-c2ccccc2)n1", 1.4),
]

====

# assay-method-text: Lipophilicity (logD7.4)
# assay-conditions: pH 7.4
measurement-kind: logD

# compound, measured-value
measured = [
    ("Oc1ccc(C=NNc2nc(-c3ccccc3)cc(-c3ccccc3)n2)cc1O (racemic)", 3.6),
    ("CN(N=Cc1ccc(O)c(O)c1)c1nc(-c2ccccc2)cc(-c2ccccc2)n1", 4.5),
]

Measured values drawn from patent US20250205230A1 for this set.
